Reference source: the supplement of paper PMC10567573

B1: DLC1 (parent)
chain: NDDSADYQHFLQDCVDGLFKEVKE

variants of: B1; test: protein stability index of a GFP-peptide fusion (GPS, HEK-293T) (PSI 1-6); higher = more stable; conditions: c terminus: a fixed tail appended;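 further: lentivirally expressed fusions sorted by FACS into six bins by GFP to DsRed ratio, PSI derived from sequencing read proportions per bin multiplied by bin number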
# class assignment by measured protein stability index: class A (below 3), class B (3 to below 5), class C (5 or more)

{"columns": ["sequenceChange", "category"],
 "data": [
  ["G17T", "class A"],
  ["C14E", "class C"],
  ["D2T", "class A"],
  ["Q8L", "class A"],
  ["L18W", "class B"],
  ["D2M", "class A"],
  ["G17K", "class A"],
  ["V22W", "class B"],
  ["F10N", "class B"],
  ["D3R", "class A"],
  ["V15G", "class C"],
  ["F19E", "class B"],
  ["E24I", "class A"],
  ["K20H", "class B"],
  ["L11R", "class C"],
  ["H9M", "class A"],
  ["D13M", "class A"],
  ["F10Y", "class A"]
]}
